Biological target: Torsin-1A-interacting protein 1 (Homo sapiens)
Assay: LAP1 binders from COS7 cell lysate, primary screen, small-molecule microarray, 635/667 nm fluorescence (AID 1116)
Settings: COS7-hLAP1 lysate binding, 635 nm fluorescence, higher = more signal
Quantity: composite z-score

Compound	Observed result
CC1(C)[C@@H]2CC(C(O)C3C=CC4C(=O)N(Cc5ccccc5)C(=O)C4N3n3cnnc3)=C[C@H]1C2 (some centres undefined)	0.187
CNS(=O)(=O)c1ccc(C)cc1	-0.312
COc1ccc([Si](C)(C)[C@H]2[C@H](CC(=O)N3Cc4ccccc4C[C@H]3CO)O[C@@]3(C(=O)N(Cc4cccc(N5CCC5=O)c4)c4ccccc43)[C@@H]2C)cc1	0.626
COc1ccc(C#Cc2ccc3c(c2)[C@]2(C(=O)N3)[C@H](C(=O)NC[C@H](O)c3ccccc3)[C@H]3C(=O)O[C@H](c4ccccc4)[C@H](c4ccccc4)N3[C@@H]2c2ccc(O)cc2)cc1	1.06
